Assignment: determine reported pIC50 for the given compounds.
- tested.system: human secreted PLA2 (Homo sapiens, UniProt P14555)
- Sequence (P14555 21-144): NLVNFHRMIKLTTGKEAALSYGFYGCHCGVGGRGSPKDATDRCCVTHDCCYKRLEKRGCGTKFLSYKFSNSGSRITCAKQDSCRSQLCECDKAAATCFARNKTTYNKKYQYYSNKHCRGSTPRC
- experiment.description: chromogenic assay of recombinant human secreted phospholipase A2 inhibition (Assay Example 1)
- experimental.parameters: mean of 3-5 tests; 40° C., 30 minutes, pH 7.5, 405 nanometers; read-out: Inhibition of human secreted PLA2 IC50 ± mean deviation (3-5 tests)
# pIC50 is unitless: minus log10 of the molar concentration; print number only

What value of pIC50 has been reported for the following compound? COc1ccc2c(c1)c(CC(=O)NN)c([S+](C)[O-])n2Cc1ccccc1 (stereo not shown)
4.34

What value of pIC50 has been reported for the following compound? `COc1ccc2c(c1)c(CC(=O)NN)c(C)n2Cc1cccc(C(F)(F)F)c1`
6.05

What value of pIC50 has been reported for the following compound? `Cc1c(CC(=O)NN)c2cc(-c3ccccc3)ccc2n1Cc1ccccc1`
6.07

Values were extracted from patent US5578634A.
